System: 616215-338-R-J1-PDC tumor spheroids, viability;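 note: spheroids exposed to agents for 7 days before readout; percent viability relative to DMSO vehicle control wells taken as 100%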
test.description: Anticancer human tumor 616215-338-R-J1-PDC patient-derived colon adenocarcinoma cell line growth inhibition [GQUAD]
condition.context: second compound 10 µM; first compound 0.0316 µM; stronger effect = lower value; spheroids with HUVEC and MSC
Please go through the items and note down their viability, T/C.
Response body: numeric value in %, unit text excluded.

Problem: Can you share its viability, T/C? I mean this compound: C=CC(=O)N1CCN(c2nc(=O)n(-c3c(C)ccnc3C(C)C)c3nc(-c4c(O)cccc4F)c(F)cc23)C(C)C1 (stereo not drawn) + CN(C)c1ccc(Nc2c3ccc(NC(=O)CCN4CCCC4)cc3nc3cc(NC(=O)CCN4CCCC4)ccc23)cc1
Result: 98.1

Problem: Again, but for CC1COCCN1c1cc(C2(S(C)(=N)=O)CC2)nc(-c2ccnc3[nH]ccc23)n1 (stereo not drawn) + CN(C)c1ccc(Nc2c3ccc(NC(=O)CCN4CCCC4)cc3nc3cc(NC(=O)CCN4CCCC4)ccc23)cc1
Result: 94

Problem: Again, but for COc1ncnc(C2CC2)c1-c1ncc2cnn(Cc3ccc(-c4nc(C(F)(F)F)cn4C(C)C)cc3)c2n1 + CN(C)c1ccc(Nc2c3ccc(NC(=O)CCN4CCCC4)cc3nc3cc(NC(=O)CCN4CCCC4)ccc23)cc1
Result: 91.7
